run-description: Biodistribution of 99mTc(N)(X)(DTC)+ heterocomplexes in rats
Format: in vivo, male Spraque-Dawley rats (SD rats)
measurement-context: 4 hr after injection
value-type: Lung % dose/g
Provide the measurement as a number trailed by its unit.

Entry COCCN1CC[P+](c2ccccc2)(c2ccccc2)[99Tc-2]2(#[N])([NH]N(C)C(SC)=[S+]2)[P+](c2ccccc2)(c2ccccc2)CC1 [^99mTc(N)(PNP2)(DTC)^+] ; Lung % dose/g = 0.670 ± 0.09 % dose/g

Entry COCCC[P]1(CCCOC)CCN(CCOC)CC[P](CCCOC)(CCCOC)[99Tc+]12(#[N])[NH]N(C)C(SC)=[S]2 [^99mTc(N)(PNP3)(DTC)^+] ; Lung % dose/g = 0.219 ± 0.01 % dose/g

Entry CSC1=[S+][99Tc-2]2(#[N])([NH]N1C)[P+](c1ccccc1)(c1ccccc1)CCOCC[P+]2(c1ccccc1)c1ccccc1 [^99mTc(N)(POP)(DTC)^+] ; Lung % dose/g = 0.549 ± 0.03 % dose/g

Entry CCCN1CC[P+](c2ccccc2)(c2ccccc2)[99Tc-2]2(#[N])([NH]N(C)C(SC)=[S+]2)[P+](c2ccccc2)(c2ccccc2)CC1 [^99mTc(N)(PNP1)(DTC)^+] ; Lung % dose/g = 1.08 ± 0.16 % dose/g
